Target under test: DNA dC->dU-editing enzyme APOBEC-3G (Homo sapiens) (UniProt Q9HC16)
Sequence (Q9HC16 whole entry, looked up): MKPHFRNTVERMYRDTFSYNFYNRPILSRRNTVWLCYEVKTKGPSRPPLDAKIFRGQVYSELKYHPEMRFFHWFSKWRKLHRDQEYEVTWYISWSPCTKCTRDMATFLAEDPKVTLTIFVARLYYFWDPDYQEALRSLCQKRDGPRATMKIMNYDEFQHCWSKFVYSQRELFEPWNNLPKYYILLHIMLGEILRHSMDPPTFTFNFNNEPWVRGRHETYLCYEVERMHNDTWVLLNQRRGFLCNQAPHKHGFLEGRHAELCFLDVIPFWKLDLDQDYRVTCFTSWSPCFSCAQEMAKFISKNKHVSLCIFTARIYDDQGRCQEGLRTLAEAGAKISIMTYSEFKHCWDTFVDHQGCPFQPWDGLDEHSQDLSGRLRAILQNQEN
Assay info: qHTS for inhibitors of Vif-A3G interactions: Cherry picks counterscreen;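 further: max response given as percent of control signal; hits raise yellow fluorescence by blocking Vif-driven A3G-eYFP degradation; nearly all actives have a fitted effect of over 70% in size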
Experimental context: HeLa A3G-eYFP + Vif (tagged APOBEC3G with the HIV-1 protein that degrades it), eYFP fluorescence, 24 h
Out of some 2,100 compounds screened, about 1,100 (52%) were called active. Not shown: some 27% with an inconclusive outcome. The set was probably picked from earlier hits. This is one part of the list.
Property label: max response (%)
One number for each entry, in %.

Below, 10 molecules whose answers are already recorded.
| Molecule | max response [%] |
| --- | --- |
| CCN(CC)c1ccc2cc(-c3nc(-c4ccc(Cl)cc4Cl)cs3)c(=O)oc2c1 | 34.3 |
| C/C(=N\Nc1nc(C)cc(-c2ccccc2)n1)c1ccc(F)cc1 | -5.07 |
| O=[N+]([O-])c1ccccc1S(=O)(=O)Nc1ccc(-c2ccc(N3CCOCC3)nn2)cc1 | 0.357 |
| Cc1ccc(NC(=S)Nc2ccccn2)c(C)c1 | -5.64 |
| CCOc1ccc(-c2cc(C(=O)NCCc3ccc(OC)c(OC)c3)c3c(-c4ccc(F)cc4)[nH]nc3n2)cc1 | -21 |
| CN(C)S(=O)(=O)c1ccc(N2CCCC2)c(C(=O)N2CCN(S(=O)(=O)c3ccc(F)c(F)c3)CC2)c1 | 9.68 |
| COc1ccc(-c2cc3ccccc3oc2=O)cc1NC(=S)NC(=O)c1ccc2c(c1)OCCO2 | -2.77 |
| Oc1ccc(C=NNC(=S)Nc2ccc(F)cc2)c(O)c1 | -25.9 |
| Cc1ccc(-c2ccc(/C=N/NC(N)=S)o2)cc1 | -14.5 |
| NNC(=S)Nc1c(F)cc(F)cc1Br | -0.636 |

State recorded max response for all listed molecules.
1. CCOC(=O)c1ccc(NC(=S)Nc2cccc(C)n2)cc1
2. O=C1OC(/C(=C\Nc2cc(Cl)ccc2O)[N+](=O)[O-])c2ccccc21 (configuration not stated)
3. Cc1cccc(/C=C/C(=O)c2ccc([N+](=O)[O-])o2)c1
4. COC(=O)c1ccccc1NC(=O)C1CC(=O)N(c2ccc(OC)cc2)C1 (configuration not stated)
5. Cc1cc2nc(SCCOC(=O)Nc3cccc(Cl)c3)nc(C)c2cc1C

1: -9.19; 2: 4.09; 3: -131; 4: -25.1; 5: 0.137

State recorded max response for all listed molecules.
1. COc1ccccc1NC(=O)Cc1ccc(-c2ccccc2)cc1
2. Cc1cc(-c2ccccc2)nc(N/N=C/c2ccccc2F)n1
3. O=C(N/N=C/c1sc(=O)n(Cc2ccc(Br)cc2)c1Cl)c1ccco1
4. O=C(NC(=S)N1CCc2ccccc21)c1ccco1
5. CCOc1ccc(CCNC(=O)c2ccc(Cn3c(=O)c4cccn4c4cccnc43)cc2)cc1
6. O=C(CCCCl)Oc1ccc2cc(-c3ccc4ccccc4n3)c(=O)oc2c1
7. O=C(CN1c2ccccc2Sc2ccccc21)NNC(=O)Nc1cccc(Cl)c1

[-14.2, -29.5, -16.3, 4.59, -3.64, 32.5, -25.9]
